# Tested on: Cyperus iria
# Protocol notes: Preemergence weed control under flooded paddy conditions, CYPIR (Rice Flatsedge); note: meaning of each grade not given here
# Assay type: in vivo
# Run parameters: Rate 0.0320 kg/ha; preemergence, flooded paddy; rated 3-4 weeks after treatment
Measurement name: herbicidal effect rating, CYPIR

compound="C#CC(C)OC(=O)C(C)(C)Oc1ccc(C)cc1-c1nsc2ccc(-n3c(=O)cc(C(F)(F)F)n(C)c3=O)cc12 (stereo not shown)" readout_number=0.0
compound=Cn1c(C(F)(F)F)cc(=O)n(-c2ccc3snc(-c4ccccc4OCC(=O)C(C)(C)C)c3c2)c1=O readout_number=7.0
compound=Cn1c(C(F)(F)F)cc(=O)n(-c2ccc3snc(-c4ccccc4OCC(N)=O)c3c2)c1=O readout_number=0.0
compound=Cc1ccc(OCC(=O)OCC(C)(C)Cc2ccccc2)c(-c2nsc3ccc(-n4c(=O)cc(C(F)(F)F)n(C)c4=O)cc23)c1 readout_number=2.0
compound=C=CCOC(=O)C(C)(C)Oc1ccc(C)cc1-c1nsc2ccc(-n3c(=O)cc(C(F)(F)F)n(C)c3=O)cc12 readout_number=0.0
compound=COCCOC(=O)C(C)(C)Oc1ccc(C)cc1-c1nsc2ccc(-n3c(=O)cc(C(F)(F)F)n(C)c3=O)cc12 readout_number=3.0
compound=Cc1ccc(OCC(N)=O)c(-c2nsc3ccc(-n4c(=O)cc(C(F)(F)F)n(C)c4=O)cc23)c1 readout_number=0.0

###

Measured herbicidal effect rating, ECHORC values are reported for all entries that follow.
# Tested on: Echinochloa oryzoides (Ard.) Fritsch.
# Protocol notes: Preemergence weed control under flooded paddy conditions, ECHORC (Watergrass (Calif.)); note: meaning of each grade not given here
# Format: in vivo
# Run parameters: Rate 0.0620 kg/ha; preemergence, flooded paddy; rated three to four weeks after treatment
Measurement name: herbicidal effect rating, ECHORC

compound="COc1ccc(O)c(-c2nsc3ccc(-n4c(=O)cc(C(F)(F)F)n(C)c4=O)cc23)c1 [Example 361]" assay_target="Echinochloa oryzoides (Ard.) Fritsch." readout_number=0.0
compound="Cn1c(C(F)(F)F)cc(=O)n(-c2ccc3snc(C(C#N)=Cc4ccncc4)c3c2)c1=O [Example 596]" assay_target="Echinochloa oryzoides (Ard.) Fritsch." readout_number=4.0
compound="Cn1c(C(F)(F)F)cc(=O)n(-c2ccc3snc(COC(=O)CCl)c3c2)c1=O [Example 368]" assay_target="Echinochloa oryzoides (Ard.) Fritsch." readout_number=7.0
compound="Cn1c(C(F)(F)F)cc(=O)n(-c2ccc3snc(COS(C)(=O)=O)c3c2)c1=O [Example 363]" assay_target="Echinochloa oryzoides (Ard.) Fritsch." readout_number=4.0
compound="Cn1c(C(F)(F)F)cc(=O)n(-c2ccc3snc(COC(=O)Cc4ccc(Cl)cc4Cl)c3c2)c1=O [Example 401]" assay_target="Echinochloa oryzoides (Ard.) Fritsch." readout_number=0.0
compound="COc1ccc(COC(=O)C(C)(C)c2nsc3ccc(-n4c(=O)cc(C(F)(F)F)n(C)c4=O)cc23)cc1 [Example 397]" assay_target="Echinochloa oryzoides (Ard.) Fritsch." readout_number=9.0
compound="CCSCCOC(=O)c1nsc2ccc(-n3c(=O)cc(C(F)(F)F)n(C)c3=O)cc12 [Example 385]" assay_target="Echinochloa oryzoides (Ard.) Fritsch." readout_number=3.0
compound="Cn1c(C(F)(F)F)cc(=O)n(-c2ccc3snc(C#N)c3c2)c1=O [Example 373]" assay_target="Echinochloa oryzoides (Ard.) Fritsch." readout_number=9.0
compound="COc1ccccc1C=C(C#N)c1nsc2ccc(-n3c(=O)cc(C(F)(F)F)n(C)c3=O)cc12 [Example 599]" assay_target="Echinochloa oryzoides (Ard.) Fritsch." readout_number=0.0
compound="Cn1c(C(F)(F)F)cc(=O)n(-c2ccc3snc(COC(=O)NCc4ccccc4)c3c2)c1=O [Example 390]" assay_target="Echinochloa oryzoides (Ard.) Fritsch." readout_number=7.0
compound="CCC(C)S(=O)(=O)NC(=O)c1nsc2ccc(-n3c(=O)cc(C(F)(F)F)n(C)c3=O)cc12 (stereo not drawn) [Example 395]" assay_target="Echinochloa oryzoides (Ard.) Fritsch." readout_number=0.0
compound="COC(C)c1nsc2ccc(-n3c(=O)cc(C(F)(F)F)n(C)c3=O)cc12 (stereo not drawn) [Example 350]" assay_target="Echinochloa oryzoides (Ard.) Fritsch." readout_number=7.5
compound="CC(=O)OCCOC(=O)COc1ccc(C)cc1-c1nsc2ccc(-n3c(=O)cc(C(F)(F)F)n(C)c3=O)cc12 [Example 578]" assay_target="Echinochloa oryzoides (Ard.) Fritsch." readout_number=6.0
compound="Cc1nsc2cc(F)c(-n3c(=O)cc(C(F)(F)F)n(C)c3=O)cc12 [Example 366]" assay_target="Echinochloa oryzoides (Ard.) Fritsch." readout_number=8.5
compound="CC(c1nsc2ccc(-n3c(=O)cc(C(F)(F)F)n(C)c3=O)cc12)S(C)(=O)=O (stereo not drawn) [Example 590]" assay_target="Echinochloa oryzoides (Ard.) Fritsch." readout_number=5.0
compound="CON(C)C(=O)COc1ccccc1-c1nsc2ccc(-n3c(=O)cc(C(F)(F)F)n(C)c3=O)cc12 [Example 354]" assay_target="Echinochloa oryzoides (Ard.) Fritsch." readout_number=9.0
compound="CC#CCOC(=O)c1nsc2ccc(-n3c(=O)cc(C(F)(F)F)n(C)c3=O)cc12 [Example 384]" assay_target="Echinochloa oryzoides (Ard.) Fritsch." readout_number=4.0
compound="Cn1c(C(F)(F)F)cc(=O)n(-c2ccc3snc(COCc4ccc(Cl)cc4)c3c2)c1=O [Example 584]" assay_target="Echinochloa oryzoides (Ard.) Fritsch." readout_number=9.0
compound="Cn1c(C(F)(F)F)cc(=O)n(-c2ccc3snc(C(Cc4ccccc4)S(C)(=O)=O)c3c2)c1=O (stereo not drawn) [Example 604]" assay_target="Echinochloa oryzoides (Ard.) Fritsch." readout_number=7.0
compound="Cc1ccc(OCC(=O)N(C)O)c(-c2nsc3ccc(-n4c(=O)cc(C(F)(F)F)n(C)c4=O)cc23)c1 [Example 355]" assay_target="Echinochloa oryzoides (Ard.) Fritsch." readout_number=9.0
compound="Cn1c(C(F)(F)F)cc(=O)n(-c2cc3c(C(Br)Br)nsc3cc2F)c1=O [Example 372]" assay_target="Echinochloa oryzoides (Ard.) Fritsch." readout_number=9.0

###

# System: Echinochloa oryzoides (Ard.) Fritsch.
# Protocol notes: Preemergence weed control under flooded paddy conditions, ECHORC (Watergrass (Calif.)); note: meaning of each grade not given here
# Format: in vivo
# Run parameters: Rate 0.1250 kg/ha; preemergence, flooded paddy; rated 3-4 weeks after treatment
Measured herbicidal effect rating, ECHORC values are reported for all entries that follow.
Measurement name: herbicidal effect rating, ECHORC

compound="CC/C=C/CCCCCCCCCCOC(=O)COc1ccc(C)cc1-c1nsc2ccc(-n3c(=O)cc(C(F)(F)F)n(C)c3=O)cc12 [Example 526]" assay_target="Echinochloa oryzoides (Ard.) Fritsch." measurement_name="herbicidal effect rating, ECHORC" readout_number=4.0
compound="Cn1c(C(F)(F)F)cc(=O)n(-c2ccc3snc(-c4ccccc4OCC(N)=O)c3c2)c1=O [Example 563]" assay_target="Echinochloa oryzoides (Ard.) Fritsch." measurement_name="herbicidal effect rating, ECHORC" readout_number=5.6
compound="Cc1ccc(OCC(=O)OCC2(c3ccccc3)CC2)c(-c2nsc3ccc(-n4c(=O)cc(C(F)(F)F)n(C)c4=O)cc23)c1 [Example 517]" assay_target="Echinochloa oryzoides (Ard.) Fritsch." measurement_name="herbicidal effect rating, ECHORC" readout_number=8.0
compound="COCCOC(=O)C(C)(C)Oc1ccc(C)cc1-c1nsc2ccc(-n3c(=O)cc(C(F)(F)F)n(C)c3=O)cc12 [Example 546]" assay_target="Echinochloa oryzoides (Ard.) Fritsch." measurement_name="herbicidal effect rating, ECHORC" readout_number=4.6
compound="Cc1ccc(OCC(=O)OCCCCCO[Si](C)(C)C(C)(C)C)c(-c2nsc3ccc(-n4c(=O)cc(C(F)(F)F)n(C)c4=O)cc23)c1 [Example 534]" assay_target="Echinochloa oryzoides (Ard.) Fritsch." measurement_name="herbicidal effect rating, ECHORC" readout_number=9.0
compound="CCOC(=O)C(F)(F)Oc1ccc(C)cc1-c1nsc2ccc(-n3c(=O)cc(C(F)(F)F)n(C)c3=O)cc12 [Example 559]" assay_target="Echinochloa oryzoides (Ard.) Fritsch." measurement_name="herbicidal effect rating, ECHORC" readout_number=3.0
compound="CCCCCCCCCOC(=O)COc1ccc(C)cc1-c1nsc2ccc(-n3c(=O)cc(C(F)(F)F)n(C)c3=O)cc12 [Example 519]" assay_target="Echinochloa oryzoides (Ard.) Fritsch." measurement_name="herbicidal effect rating, ECHORC" readout_number=6.5
compound="C=CCOCC(CC)(COCC=C)COC(=O)COc1ccc(C)cc1-c1nsc2ccc(-n3c(=O)cc(C(F)(F)F)n(C)c3=O)cc12 [Example 521]" assay_target="Echinochloa oryzoides (Ard.) Fritsch." measurement_name="herbicidal effect rating, ECHORC" readout_number=4.0
compound="CC=CCOC(=O)C(C)(C)Oc1ccc(C)cc1-c1nsc2ccc(-n3c(=O)cc(C(F)(F)F)n(C)c3=O)cc12 [Example 529]" assay_target="Echinochloa oryzoides (Ard.) Fritsch." measurement_name="herbicidal effect rating, ECHORC" readout_number=9.0
compound="CCCS(=O)(=O)NC(=O)COc1ccc(C)cc1-c1nsc2ccc(-n3c(=O)cc(C(F)(F)F)n(C)c3=O)cc12 [Example 552]" assay_target="Echinochloa oryzoides (Ard.) Fritsch." measurement_name="herbicidal effect rating, ECHORC" readout_number=4.7
compound="Cc1ccc(OCC(=O)c2ccc(OC(F)F)cc2)c(-c2nsc3ccc(-n4c(=O)cc(C(F)(F)F)n(C)c4=O)cc23)c1 [Example 543]" assay_target="Echinochloa oryzoides (Ard.) Fritsch." measurement_name="herbicidal effect rating, ECHORC" readout_number=4.0
